Origin of values: the supplement of paper PMC5998384

# Test system: HeLa Kyoto;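 further: HeLa Kyoto cells synchronized by double thymidine or nocodazole block, proteins quantified by TMT10plex mass spectrometry, three independent biological replicates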
# MEASUREMENT_NOTES: melting temperature (median over replicates), in situ; higher = more thermally stable
# TEST_CONDITIONS: cell cycle stage: G1/S
Documented melting temperature across a set of sequences
METRIC: melting temperature

* MLPLSIKDDEYKPPKFNLFGKISGWFRSILSDKTSRNLFFFLCLNLSFAFVELLYGIWSNCLGLISDSFHMFFDSTAILAGLAASVISKWRDNDAFSYGYVRAEVLAGFVNGLFLIFTAFFIFSEGVERALAPPDVHHERLLLVSILGFVVNLIGIFVFKHGGHGHSHGSGHGHSHSLFNGALDQAHGHVDHCHSHEVKHGAAHSHDHAHGHGHFHSHDGPSLKETTGPSRQILQGVFLHILADTLGSIGVIASAIMMQNFGLMIADPICSILIAILIVVSVIPLLRESVGILMQRTPPLLENSLPQCYQRVQQLQGVYSLQEQHFWTLCSDVYVGTLKLIVAPDADARWILSQTHNIFTQAGVRQLYVQIDFAAM [SLC30A7] | 57.8 °C
* MFSLPLNCSPDHIRRGSCWGRPQDLKIAAPAWNSKCHPGAGAAMARQHARTLWYDRPRYVFMEFCVEDSTDVHVLIEDHRIVFSCKNADGVELYNEIEFYAKVNSKPVWLSVDFDNWRDWEGDEEMELAHVEHYAELLKKVSTKRPPPAMDDLDDDSDSADDATSN [PTGES3L] | 49.8 °C
* MKKEHVLHCQFSAWYPFFRGVTIKSVILPLPQNVKDYLLDDGTLVVSGRDDPPTHSQPDSDDEAEEIQWSDDENTATLTAPEFPEFATKVQEAINSLGGSVFPKLNWSAPRDAYWIAMNSSLKCKTLSDIFLLFKSSDFITRDFTQPFIHCTDDSPDPCIEYELVLRKWCELIPGAEFRCFVKENKLIGISQRDYTQYYDHISKQKEEIRRCIQDFFKKHIQYKFLDEDFVFDIYRDSRGKVWLIDFNPFGEVTDSLLFTWEELISENNLNGDFSEVDAQEQDSPAFRCTNSEVTVQPSPYLSYRLPKDFVDLSTGEDAHKLIDFLKLKRNQQEDD [CDC123] | 51.7 °C
